Tested on: A549 NSCLC
Assay: NCI tumour cell line growth inhibition, 48 h
Recorded metric: TGI

> print(dat)
                                    compound         tgt  recorded.metric  observed.value
 1   COc1ccccc1/[N+]([O-])=C/c1ccccc1OC(=S)S  A549 NSCLC              TGI        > 100 µM
 2  COc1cccc2c(Nc3ccc(C(=O)NCCNCCO)cc3)cc(-c3ccccc3)nc12  A549 NSCLC              TGI        > 100 µM
 3                       COC(=O)CC(SCCO)SCCO  A549 NSCLC              TGI        > 100 µM
 4  COc1ccc(C(=O)c2cc(OC)c(OC)c(OC)c2)cc1/C=C/C(=O)c1ccc(O)cc1  A549 NSCLC              TGI        > 100 µM
 5  O=C1c2cccnc2-c2nc(-c3ccccn3)cc3c2c1nc1ccccc13  A549 NSCLC              TGI         3.39 µM
 6                  CC(C)(C)C(=O)Nc1ccccc1Br  A549 NSCLC              TGI        > 100 µM
 7            O=C(c1ccccc1)c1ccc2cccc(O)c2n1  A549 NSCLC              TGI        > 100 µM
 8        O=NN(CCCl)C(=O)NCc1ccc[n+]([O-])c1  A549 NSCLC              TGI        > 100 µM
 9                  O=C(/C=C/c1ccsc1)c1cccs1  A549 NSCLC              TGI        > 100 µM
10  CCCOP1(=O)C=C(C)C(Cl)=C(C)C1 (configuration not stated)  A549 NSCLC              TGI         61.3 µM
11  CC(SC(=S)N1CCCC1)C(=O)Nc1nnc(-c2ccc(Cl)cc2)o1 (configuration not stated)  A549 NSCLC              TGI        > 100 µM
12  Cc1ccc(C)c(-n2c(-c3ccc(Br)cc3)csc2=NC(=O)c2ccccc2F)c1  A549 NSCLC              TGI        > 100 µM
